The values you see were collected from patent US6914045B2.

- Test system: Staphylococcus sp.
- assay name: in vitro antibacterial evaluation, MIC by broth dilution
- Format: cell-based
- stated conditions: broth dilution, 18 hours at 35° C.; strain ID-3941
experimental endpoint: MIC Coagulase Negative Staphylococcus (ID-3941) (µg/mL)
Field format: number, assumed µg/mL, no unit text.

Q: Which measured MIC Coagulase Negative Staphylococcus (ID-3941) value corresponds to CC(c1ccccc1)C1NC(=O)CNC(=O)C(CO)NC(=O)C(C(O)C2CNC(=N)N2C2OC(CO)C(O)C(O)C2O)NC(=O)C(C(O)C2CNC(=N)N2)NC(=O)C(Cc2ccc(OC3OC(CO)C(OC4OC5COC(C6CCCCC6)OC5C(O)C4O)C(O)C3O)cc2)NC1=O (centres unmarked) ?
Ans: 0.5

Q: And then CCCCCNC(=O)OCC1OC(OC2C(CO)OC(Oc3ccc(CC4NC(=O)C(C(C)c5ccccc5)NC(=O)CNC(=O)C(CO)NC(=O)C(C(O)C5CNC(=N)N5C5OC(CO)C(O)C(O)C5O)NC(=O)C(C(O)C5CNC(=N)N5)NC4=O)cc3)C(O)C2O)C(O)C(O)C1O (centres unmarked) [Example 251b] , what is it?
Ans: 4

----------
- Tested on: Staphylococcus sp.
- assay name: in vitro antibacterial evaluation, MIC by broth dilution
- Format: cell-based
- stated conditions: broth dilution, 18 hours at 35° C.
Square brackets hold non-standard residues; d marks the D form. Peptide text beside a SMILES is read from it. * marks the point of attachment. ξ: configuration not given here. ξEnduracididine(βξ-OH,4'ξ) = N=C1NCC(C(O)C(N)C(=O)O)N1; X2 = OCC1OC(OC2C(CO)OC(*)C(O)C2O)C(O)C(O)C1O
Can you tell me MIC Coagulase Negative Staphylococcus (GC 4549) for the items I'm about to list?

Q: Which measured MIC Coagulase Negative Staphylococcus (GC 4549) value corresponds to CC(c1ccccc1)C1NC(=O)CNC(=O)C(CO)NC(=O)C(C(O)C2CNC(=N)N2C2OC(CO)C(O)C(O)C2O)NC(=O)C(C(O)C2CNC(=N)N2)NC(=O)C(Cc2ccc(OC3OC(CO)C(OC4OC(CO)C(OCC=C(c5ccccc5)c5ccccc5)C(O)C4O)C(O)C3O)cc2)NC1=O (stereo not drawn) [Example 241a] ?
Ans: 1 µg/mL

Q: And then COc1ccc2cc(COC3C(CO)OC(OC4C(CO)OC(Oc5ccc(CC6NC(=O)C(C(C)c7ccccc7)NC(=O)CNC(=O)C(CO)NC(=O)C(C(O)C7CNC(=N)N7C7OC(CO)C(O)C(O)C7O)NC(=O)C(C(O)C7CNC(=N)N7)NC6=O)cc5)C(O)C4O)C(O)C3O)ccc2c1 (stereo not drawn) [Example 230a] , what is it?
Ans: 0.12 to 0.5 µg/mL

Q: And then N=C1NCC(C(O)C2NC(=O)C(Cc3ccc(OC4OC(CO)C(OC5OC(CO)C(O)C(O)C5O)C(O)C4O)cc3)NC(=O)C(Cc3ccccc3)NC(=O)CNC(=O)C(CO)NC(=O)C(C(O)C3CNC(=N)N3)NC2=O)N1 (stereo not drawn) [Example 296] (cyclo(GFY(X2)[ξEnduracididine(βξ-OH,4'ξ)][ξEnduracididine(βξ-OH,4'ξ)]S); configuration not given here) , what is it?
Ans: >128 µg/mL

----------
Can you tell me MIC Coagulase Negative Staphylococcus (GC 4547) for the items I'm about to list?
- System: Staphylococcus sp.
- assay name: in vitro antibacterial evaluation, MIC by broth dilution
- Type: cell-based
- stated conditions: broth dilution, 18 hours at 35° C.; strain GC 4547
Field format: number, assumed µg/mL, no unit text.

Q: Which measured MIC Coagulase Negative Staphylococcus (GC 4547) value corresponds to CC(C)CC(=O)OC1C(O)C(CO)OC(OC2C(CO)OC(Oc3ccc(CC4NC(=O)C(C(C)c5ccc(Cl)cc5)NC(=O)CNC(=O)C(CO)NC(=O)C(C(O)C5CNC(=N)N5C5OC(CO)C(O)C(O)C5O)NC(=O)C(C(O)C5CNC(=N)N5)NC4=O)cc3)C(O)C2O)C1O (stereo not shown) [Example 262b] ?
Ans: 2

Q: And then CCCC(C)C1OCC2OC(OC3C(CO)OC(Oc4ccc(CC5NC(=O)C(C(C)c6ccccc6)NC(=O)CNC(=O)C(CO)NC(=O)C(C(O)C6CNC(=N)N6C6OC(CO)C(O)C(O)C6O)NC(=O)C(C(O)C6CNC(=N)N6)NC5=O)cc4)C(O)C3O)C(O)C(O)C2O1 (stereo not shown) , what is it?
Ans: 0.5

Q: And then COc1ccc(COCC2OC(OC3C(CO)OC(Oc4ccc(CC5NC(=O)C(C(C)c6ccccc6)NC(=O)CNC(=O)C(CO)NC(=O)C(C(O)C6CNC(=N)N6C6OC(CO)C(O)C(O)C6O)NC(=O)C(C(O)C6CNC(=N)N6)NC5=O)cc4)C(O)C3O)C(O)C(O)C2O)cc1OCc1ccccc1 (stereo not shown) , what is it?
Ans: 2

Q: And then CC(c1ccccc1)C1NC(=O)CNC(=O)C(CO)NC(=O)C(C(O)C2CNC(=N)N2C2OC(CO)C(O)C(O)C2O)NC(=O)C(C(O)C2CNC(=N)N2)NC(=O)C(Cc2ccc(OC3OC(CO)C(OC4OC5COC(C6CC=CCC6)OC5C(O)C4O)C(O)C3O)cc2)NC1=O (stereo not shown) , what is it?
Ans: 1

Q: And then COc1cc(OC)cc(C2OC3C(OC4C(CO)OC(Oc5ccc(CC6NC(=O)C(C(C)c7ccccc7)NC(=O)CNC(=O)C(CO)NC(=O)C(C(O)C7CNC(=N)N7C7OC(CO)C(O)C(O)C7O)NC(=O)C(C(O)C7CNC(=N)N7)NC6=O)cc5)C(O)C4O)OC(CO)C(O)C3O2)c1 (stereo not shown) [Example 150a] , what is it?
Ans: 16

Q: And then CC(c1ccccc1)C1NC(=O)CNC(=O)C(CO)NC(=O)C(C(O)C2CNC(=N)N2C2OC(CO)C(O)C(O)C2O)NC(=O)C(C(O)C2CNC(=N)N2)NC(=O)C(Cc2ccc(OC3OC(CO)C(OC4OC(COC(=O)Cc5ccccc5)C(O)C(O)C4O)C(O)C3O)cc2)NC1=O (stereo not shown) [Example 98c] , what is it?
Ans: 1

Q: And then COc1cccc(C2OC3C(OC4C(CO)OC(Oc5ccc(CC6NC(=O)C(C(C)c7ccccc7)NC(=O)CNC(=O)C(CO)NC(=O)C(C(O)C7CNC(=N)N7C7OC(CO)C(O)C(O)C7O)NC(=O)C(C(O)C7CNC(=N)N7)NC6=O)cc5)C(O)C4O)OC(CO)C(O)C3O2)c1 (single isomer, unassigned) [Example 137b] , what is it?
Ans: 8

----------
- Tested on: Staphylococcus sp.
- assay name: in vitro antibacterial evaluation, MIC by broth dilution
- Assay type: cell-based
- stated conditions: strain GC 4547; broth dilution, 18 hours at 35° C.
Can you tell me MIC Coagulase Negative Staphylococcus (GC 4547) for the items I'm about to list?
Field format: number, assumed µg/mL, no unit text.

Q: Which measured MIC Coagulase Negative Staphylococcus (GC 4547) value corresponds to CC(c1ccccc1)C1NC(=O)CNC(=O)C(CO)NC(=O)C(C(O)C2CN(Cc3ccc4ccccc4c3)C(=N)N2C2OC(CO)C(O)C(O)C2O)NC(=O)C(C(O)C2CNC(=N)N2)NC(=O)C(Cc2ccc(OC3OC(CO)C(OC4OC(CO)C(O)C(O)C4O)C(O)C3O)cc2)NC1=O (stereo not drawn) ?
Ans: 128

Q: And then CC(c1ccccc1)C1NC(=O)CNC(=O)C(CO)NC(=O)C(C(O)C2CNC(=N)N2C2OC(CO)C(O)C(O)C2O)NC(=O)C(C(O)C2CNC(=N)N2)NC(=O)C(Cc2ccc3oc(SCc4ccccc4)nc3c2)NC1=O (stereo not drawn) , what is it?
Ans: 4

Q: And then CC(c1ccccc1)C1NC(=O)CNC(=O)C(CO)NC(=O)C(CC2CNC(=N)N2C2OC(CO)C(O)C(O)C2O)NC(=O)C(CC2CNC(=N)N2)NC(=O)C(Cc2ccc3oc(-c4ccc5c(c4)Cc4ccccc4-5)nc3c2)NC1=O (stereo not drawn) , what is it?
Ans: 2

Q: And then CC(c1ccccc1)C1NC(=O)CNC(=O)C(CO)NC(=O)C(C(O)C2CN(CCCCCCCCCCCCO)C(=N)N2C2OC(CO)C(O)C(O)C2O)NC(=O)C(C(O)C2CNC(=N)N2)NC(=O)C(Cc2ccc(OC3OC(CO)C(OC4OC(CO)C(O)C(O)C4O)C(O)C3O)cc2)NC1=O (stereo not drawn) , what is it?
Ans: 128

Q: And then CCCCCC(=O)OCC1OC(OC2C(CO)OC(Oc3ccc(CC4NC(=O)C(C(C)c5ccccc5)NC(=O)CNC(=O)C(CO)NC(=O)C(C(O)C5CNC(=N)N5C5OC(CO)C(O)C(O)C5O)NC(=O)C(C(O)C5CNC(=N)N5)NC4=O)cc3)C(O)C2O)C(O)C(O)C1O (stereo not drawn) [Example 95b] , what is it?
Ans: 1

Q: And then CC(c1ccccc1)C1NC(=O)CNC(=O)C(CO)NC(=O)C(C(O)C2CNC(=N)N2C2OC(CO)C(O)C(O)C2O)NC(=O)C(C(O)C2CNC(=N)N2)NC(=O)C(Cc2ccc3oc(-c4ccoc4)nc3c2)NC1=O (stereo not drawn) , what is it?
Ans: 32

Q: And then CC(c1ccccc1)C1NC(=O)CNC(=O)C(CO)NC(=O)C(C(O)C2CNC(=N)N2C2OC(CO)C(O)C(O)C2O)NC(=O)C(C(O)C2CNC(=N)N2)NC(=O)C(Cc2ccc3oc(-c4ccc(OCc5ccccc5)cc4)nc3c2)NC1=O (stereo not drawn) , what is it?
Ans: 8

Q: And then CC(C)=CCCC(C)=CCN=C1NCC(C(O)C2NC(=O)C(C(O)C3CNC(=N)N3)NC(=O)C(Cc3ccc(OC4OC(CO)C(OC5OC6COC7(OC6C(O)C5O)C5CC6CC(C5)CC7C6)C(O)C4O)cc3)NC(=O)C(C(C)c3ccccc3)NC(=O)CNC(=O)C(CO)NC2=O)N1C1OC(CO)C(O)C(O)C1O (stereo not drawn) , what is it?
Ans: 4

Q: And then Cc1ccc(Oc2cccc(-c3nc4cc(CC5NC(=O)C(C(C)c6ccccc6)NC(=O)CNC(=O)C(CO)NC(=O)C(C(O)C6CNC(=N)N6C6OC(CO)C(O)C(O)C6O)NC(=O)C(C(O)C6CNC(=N)N6)NC5=O)ccc4o3)c2)cc1 (stereo not drawn) , what is it?
Ans: 8

Q: And then CCCCCCN=C1NCC(C(O)C2NC(=O)C(C(O)C3CNC(=N)N3)NC(=O)C(Cc3ccc(OC4OC(CO)C(OC5OC6COC7(OC6C(O)C5O)C5CC6CC(C5)CC7C6)C(O)C4O)cc3)NC(=O)C(C(C)c3ccccc3)NC(=O)CNC(=O)C(CO)NC2=O)N1C1OC(CO)C(O)C(O)C1O (stereo not drawn) , what is it?
Ans: 4

Q: And then CC(c1ccccc1)C1NC(=O)CNC(=O)C(CO)NC(=O)C(C(O)C2CNC(=N)N2C2OC(CO)C(O)C(O)C2O)NC(=O)C(C(O)C2CNC(=N)N2)NC(=O)C(Cc2ccc3oc(-c4ccc(N(C)C)cc4)nc3c2)NC1=O (stereo not drawn) , what is it?
Ans: 4
